Tgt: T1, recombinant, soluble human ASGR-1 (human, UniProt P07306 62-291)
T1 construct: biotinylated in the binning assay; also called soluble huASGR-1; Soluble ASGR-1 (Amgen)
T1 sequence: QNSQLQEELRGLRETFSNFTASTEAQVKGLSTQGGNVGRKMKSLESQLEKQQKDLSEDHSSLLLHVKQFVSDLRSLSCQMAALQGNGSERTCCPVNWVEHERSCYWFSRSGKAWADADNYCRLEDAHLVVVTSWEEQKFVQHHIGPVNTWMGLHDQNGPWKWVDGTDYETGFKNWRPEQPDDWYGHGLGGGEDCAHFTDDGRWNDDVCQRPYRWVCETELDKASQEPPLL
Test Protocol: Octet BLI dissociation, pH 5.6 plus calcium
Readout Type: % Change Compared to pH 7.4 + Calcium (%)
Report as a plain number; the unit % is understood.

Binder	Readout Type	Result Units	Assay Value
52H1 (antibody, V domains shown, hybridoma mAb) VH: QVQLVESGGGVVQPGRSLRLSCAASGFTFSGYGMHWVRQAPGKGLEWVAVIWYDGSNKYYADSVKGRFTISRDNSKNTLYLQMNSLRAEDTAVYYCARDRVYCSSSSCSYYYYYYGMDVWGQGTTVTVSS VL: SYELTQPPSVFVSPGQTASITSSGDKLGDKYVSWYQQKPGQSPVLVIYQDRKRPSGIPERFSGSNSGNTATLTISGTQAMDEADYYCQAWDNSTVVFGGGTKLTVL	% Change Compared to pH 7.4 + Calcium	%	-1
194C10 (antibody, V domains shown, hybridoma mAb) VH: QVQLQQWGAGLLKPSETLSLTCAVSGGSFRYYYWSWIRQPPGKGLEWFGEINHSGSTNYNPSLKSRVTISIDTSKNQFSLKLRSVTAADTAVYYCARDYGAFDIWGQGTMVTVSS VL: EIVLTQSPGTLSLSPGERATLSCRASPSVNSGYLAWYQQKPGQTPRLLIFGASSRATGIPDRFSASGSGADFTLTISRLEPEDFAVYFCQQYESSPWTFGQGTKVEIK	% Change Compared to pH 7.4 + Calcium	%	10
72F5 (antibody, V domains shown, hybridoma mAb) VH: EVQLLESGGGLVQPGGSLRLSCAASGFTFSSYAMIWVRQAPGKGLEWVSTISGSGGYTYSADSVKGRFTISRDNSKNTLYLQMNSLRAEDTAVYYCARRIAVTGTEWYDPWGQGTLVTVSS VL: DIQMTQSPSSLSASVGDRVIIPCRASQNISSYLNWYQQKPGKAPKLLIYAASSLQSGVPSRFSGSGSGTDFTLTISSLQPEDFATYSCQQTYSTPTFGQGTRLDIN	% Change Compared to pH 7.4 + Calcium	%	20
210G10 (antibody, V domains shown, hybridoma mAb) VH: QVQLQESGPGLVKPSETLSLNCTVSGGSIRSYYWSWIRQPAGKGLEWIGRIYTSGSTDYNPSLKSRITMSVDTSKNQFSLKLSSVTAADTAVYYCARGFGDWDYWGQGTLVTVSS VL: DIQMTQSPSSLSASVGDRVTITFRTSQGIRNDLGWYQQQPGKTPKRMIYAASSLFSGVPSRFSGSRSGTDFTLTISSLQPEDFATYYCLQYNSYPPTFGQGTRLEIK	% Change Compared to pH 7.4 + Calcium	%	-10
172B12 (antibody, V domains shown, hybridoma mAb) VH: QVQLVQSGAEVKKPGASVTVSCKASGYTFRSYYMYWVRQAPGQGLEWVGTINPSGGSTDYAQKFQGRVTMTRDTSTSTLYMELNSLRSEDTAVYYCASGWELNYWGQGTLVTVSS VL: SSELTQDPAVSVALGQTVRITCQGDSLRNYYASWYQQKPGQAPILVIYTKNSRPSGIPDRFSGSTSGNTASLTITGAQAEDEADYYCNSRDSSGNHVVFGGGTKLTVL	% Change Compared to pH 7.4 + Calcium	%	-27

[ask] For 199E3 (antibody, V domains shown, hybridoma mAb) VH: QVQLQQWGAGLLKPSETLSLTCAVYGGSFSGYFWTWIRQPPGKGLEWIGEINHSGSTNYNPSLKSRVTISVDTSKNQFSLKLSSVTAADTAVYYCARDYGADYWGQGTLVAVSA VL: DIQMTQSPSSLSASVGDRVTITCRASQGIRNDLGWYQQKPGKAPKRLISSASSLQRGVPSRFSGSGSGTEFTLTISSLQPEDFATYYCLQHKRYPLTFGGGTKVEIK , write its % Change Compared to pH 7.4 + Calcium.
[reply] -4

[ask] For 60E8 (antibody, V domains shown, hybridoma mAb) VH: QVQLQESGPGLVRPSATLSLTCTVSGGSISRSSYYWGWIRQPPGKGLEWIGSIYYSGSASYNPSLKSRVTISVDTSENQFSLRLSSVTAADTAVYYCARLDSGWSFDYWGQGTLVTVSS VL: DIQMTQSPSSLSASVGDRVTFTCRASQGIRNDLGWFQQKPGKAPKRLIYAASSLQSGVPSRFSGSGSGTEFTLTISSLQPEDFATYYCLQHSSYPLTFGGGTKVEIK , write its % Change Compared to pH 7.4 + Calcium.
[reply] 11

[ask] For 197B6 (antibody, V domains shown, hybridoma mAb) VH: QVQLVESGGGVVQPGRSLRLSCAASGFTFSSYGMHWVRQAPGKGLEWVAVIWYDGSNKNYADSVKGRFTISRDNSKNMLYLQMNSLRAEDTAMYYCARDQGVGYDGLDVWGQGTSVTVSS VL: DIQMTQSPSSLSASVGDRVTITCRASQGIGKYLAWFQQKPGKAPKSLIYGASSLQSGVPSKFSGSGSGTDFTLTISSLQPENFATYYCQQYSTYPLTFGGGTKVEIK , write its % Change Compared to pH 7.4 + Calcium.
[reply] -8

[ask] For 52G11 (antibody, V domains shown, hybridoma mAb) VH: QVQLVQSGAEVKKPGASVKVSCKASGYTFTGYYLHWVRQAPGQGLEWMGWINPNRNGTNYAQKFQGRVTMTRDTSISTAFMELSRLRSDDTAVYYCARDGTSSFDYWGQGTLVTVSS VL: DIQMTQSPSSVSASVGDRVTITCRASQGISKWLAWYQQKPGKAPKLLLYAASSLQSGVPSRFSASGSGTDFTLTISSLQPEDFATYYCQQANSFPFTFGPGTKVDVK , write its % Change Compared to pH 7.4 + Calcium.
[reply] 1

// data source = patent US20190248902A1
